Field: Ki. Provide a value for each of the molecules that follow.
# MEASURED_TARGET: Tyrosine-protein kinase Lck (Homo sapiens, UniProt P06239)
# Sequence (P06239 whole entry): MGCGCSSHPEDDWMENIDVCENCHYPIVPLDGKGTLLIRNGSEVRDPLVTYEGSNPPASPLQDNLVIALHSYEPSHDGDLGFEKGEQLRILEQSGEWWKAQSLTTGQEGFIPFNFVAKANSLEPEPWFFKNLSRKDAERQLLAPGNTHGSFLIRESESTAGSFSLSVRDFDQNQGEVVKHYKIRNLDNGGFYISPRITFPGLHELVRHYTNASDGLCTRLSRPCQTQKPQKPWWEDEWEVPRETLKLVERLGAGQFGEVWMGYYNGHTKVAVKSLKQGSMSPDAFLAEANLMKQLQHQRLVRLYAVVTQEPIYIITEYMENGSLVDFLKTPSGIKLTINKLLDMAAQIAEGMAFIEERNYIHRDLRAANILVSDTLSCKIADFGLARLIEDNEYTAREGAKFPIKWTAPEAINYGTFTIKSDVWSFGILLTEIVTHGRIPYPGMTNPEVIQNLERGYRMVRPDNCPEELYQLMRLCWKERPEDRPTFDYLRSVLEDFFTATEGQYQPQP
# TEST: Inhibition of LCK (unknown origin) using tamra-p34cdc-derived peptide as substrate after 30 mins
Give the quantity in µM, number only.

Answer with the recorded Ki for the molecule listed here: O[C@H]1CC[C@H](Nc2nc(Nc3cc4ccccc4cn3)cc(C(F)(F)c3ccc(F)cc3)n2)CC1
0.1

Answer with the recorded Ki for the molecule listed here: O[C@H]1CC[C@H](Nc2nc(Cc3ccccc3)cc(Nc3nc4cccnc4s3)n2)CC1
0.1

Identify the reported Ki for the following entry. COc1ccc2nc(Nc3cc(C(F)(F)c4ccc(F)cc4)nc(N4CCC[C@H]4C(N)=O)n3)sc2c1
2.51

----------
Give measured Ki for each item. Keep answers brief.
# MEASURED_TARGET: Aurora kinase B (Homo sapiens, UniProt Q96GD4)
# Sequence (Q96GD4 whole entry): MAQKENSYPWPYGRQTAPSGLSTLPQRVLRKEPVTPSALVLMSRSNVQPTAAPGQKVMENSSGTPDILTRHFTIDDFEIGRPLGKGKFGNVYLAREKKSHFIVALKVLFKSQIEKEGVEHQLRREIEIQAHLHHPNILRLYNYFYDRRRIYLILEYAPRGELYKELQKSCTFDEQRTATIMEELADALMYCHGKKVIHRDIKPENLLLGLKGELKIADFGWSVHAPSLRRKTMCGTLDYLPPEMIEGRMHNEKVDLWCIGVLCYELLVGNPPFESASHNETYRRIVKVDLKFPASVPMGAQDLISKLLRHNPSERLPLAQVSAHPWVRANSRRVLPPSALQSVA
# TEST: Inhibition of Aurora-B (unknown origin) using 5FAM-PKAtide as substrate after 120 mins

Please indicate Ki recorded for N#Cc1ccc2nc(Nc3cc(Cc4ccccc4)nc(N[C@H]4CC[C@H](O)CC4)n3)sc2c1
79.4 nM

Using known records, supply Ki for Cc1cnc(Nc2cc(Cc3ccccc3)nc(N[C@H]3CC[C@H](O)CC3)n2)s1
0.501 nM

Provide measured Ki value, entry: COc1ccc2nc(Nc3cc(C(F)(F)c4ccc(F)cc4)nc(N[C@H]4CC[C@H](O)CC4)n3)sc2n1
> 20000 nM

// Input: CCc1ccc2nc(Nc3cc(Cc4ccccc4)nc(N[C@H]4CC[C@H](O)CC4)n3)sc2c1 . Output its Ki only.
398 nM

// fetch Ki given entry O[C@H]1CC[C@H](Nc2nc(Nc3ncc(Cc4ccccc4)s3)cc(C(F)(F)c3ccc(F)cc3)n2)CC1
5.01 nM

Using known records, supply Ki for COc1ccc2nc(Nc3cc(Cc4ccccc4)nc(N[C@H]4CC[C@H](O)CC4)n3)sc2c1
501 nM

Kindly indicate its recorded Ki. Item: COc1ccc2nc(Nc3cc(C(F)(F)c4ccc(F)cc4)nc(N[C@H]4CC[C@H](O)CC4)n3)sc2c1
2510 nM

Dear colleague, please send me the reported Ki for Cc1ccc2nc(Nc3cc(Cc4ccccc4)nc(N[C@H]4CC[C@H](O)CC4)n3)sc2c1 when you can.
316 nM

Please look at this compound and report its Ki: O[C@H]1CC[C@H](Nc2nc(Cc3ccccc3)cc(Nc3nc4ccccc4s3)n2)CC1
398 nM

Give Ki for O[C@H]1CC[C@H](Nc2nc(Nc3cc4ccccc4cn3)cc(C(F)(F)c3ccc(F)cc3)n2)CC1
79.4 nM

Answer with the recorded Ki for the compound listed here: Cc1cc2nc(Nc3cc(Cc4ccccc4)nc(N[C@H]4CC[C@H](O)CC4)n3)sc2cc1C
20000 nM

Name the recorded Ki of the item COc1ccc2nc(Nc3cc(Cc4ccccc4)nc(N[C@H]4CC[C@H](O)CC4)n3)sc2n1 in your answer.
316 nM

Report measured Ki; entry is O[C@H]1CC[C@H](Nc2nc(Cc3ccccc3)cc(Nc3nc4ccc(Cl)cc4s3)n2)CC1
251 nM

In one line, give reported Ki of the entry O[C@H]1CC[C@H](Nc2nc(Cc3ccccc3)cc(Nc3nc4cccnc4s3)n2)CC1 .
100 nM

Give the measured Ki for O[C@H]1CC[C@H](Nc2nc(Nc3ccc(Oc4ccc(F)cc4)cn3)cc(C(F)(F)c3ccc(F)cc3)n2)CC1
5010 nM

Let me know recorded Ki for COc1ccc2nc(Nc3cc(C(F)(F)c4ccc(F)cc4)nc(N4CCC[C@H]4C(N)=O)n3)sc2c1 , thanks.
> 20000 nM

Return Ki (reported value) for this compound: O[C@H]1CC[C@H](Nc2nc(Cc3ccccc3)cc(Nc3nc4ccc(C(F)(F)F)cc4s3)n2)CC1
251 nM

Output Ki of Cc1csc(Nc2cc(Cc3ccccc3)nc(N[C@H]3CC[C@H](O)CC3)n2)n1
> 20000 nM

State its Ki for this compound: O[C@H]1CC[C@H](Nc2nc(Nc3n[nH]c4ccccc34)cc(C(F)(F)c3ccc(F)cc3)n2)CC1
631 nM

In one line, give reported Ki of the entry NC(=O)[C@@H]1CCCN1c1nc(Nc2ncc(Cc3ccccc3)s2)cc(C(F)(F)c2ccc(F)cc2)n1 .
3160 nM

Please list Ki recorded for the compound CCc1ccc2nc(Nc3cc(Cc4ccccc4)nc(N[C@H]4CC[C@H](O)CC4)n3)sc2n1
63.1 nM

----------
# MEASURED_TARGET: Tyrosine-protein kinase ITK/TSK (Homo sapiens)
# Sequence (Q08881 whole entry): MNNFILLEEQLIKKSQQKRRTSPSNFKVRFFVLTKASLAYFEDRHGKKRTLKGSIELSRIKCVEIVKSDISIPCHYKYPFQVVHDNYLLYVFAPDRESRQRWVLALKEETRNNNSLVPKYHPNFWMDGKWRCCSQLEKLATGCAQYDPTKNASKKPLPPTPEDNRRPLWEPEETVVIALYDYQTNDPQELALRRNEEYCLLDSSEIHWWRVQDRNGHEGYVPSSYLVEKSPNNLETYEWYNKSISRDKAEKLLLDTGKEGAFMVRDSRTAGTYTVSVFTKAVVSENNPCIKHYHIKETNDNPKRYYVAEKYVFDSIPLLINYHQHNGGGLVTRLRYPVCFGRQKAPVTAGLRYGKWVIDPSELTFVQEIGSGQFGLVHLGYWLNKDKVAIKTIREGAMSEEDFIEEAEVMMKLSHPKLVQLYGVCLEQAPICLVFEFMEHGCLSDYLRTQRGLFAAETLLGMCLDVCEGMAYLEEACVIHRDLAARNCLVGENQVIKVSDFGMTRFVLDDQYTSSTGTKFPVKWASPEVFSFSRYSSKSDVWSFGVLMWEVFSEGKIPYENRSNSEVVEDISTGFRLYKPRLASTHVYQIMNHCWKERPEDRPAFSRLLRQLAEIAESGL
# TEST: Inhibition of ITK (unknown origin)
Task for the reader: assign each of the following molecules its reported Ki.
# unit: nM | format: bare number

System Tyrosine-protein kinase ITK/TSK (Homo sapiens). Read-out Ki. Item CS(=O)(=O)N1CCOC(CNc2nc(Cc3ccccc3)cc(Nc3cc(-c4ccco4)n[nH]3)n2)C1 (configuration not stated) . Report value.
6.31

Write down the reported Ki (system: Tyrosine-protein kinase ITK/TSK (Homo sapiens)) of NC(=O)C1CCN1c1nc(Cc2ccccc2)cc(Nc2cc(C3CCC3)n[nH]2)n1 (configuration not stated)
15.8
